System: HeLa Kyoto
Experiment: melting temperature (median over replicates), in situ; higher = more thermally stable
Conditions: cell cycle stage: mitosis
measurement.type: melting temperature (°C)
Give your result in °C as a bare value.

*Q* # returns recorded melting temperature (system: HeLa Kyoto) for MGPRARPALLLLMLLQTAVLQGRLLRSHSLHYLFMGASEQDLGLSLFEALGYVDDQLFVFYDHESRRVEPRTPWVSSRISSQMWLQLSQSLKGWDHMFTVDFWTIMENHNHSKESHTLQVILGCEMQEDNSTEGYWKYGYDGQDHLEFCPDTLDWRAAEPRAWPTKLEWERHKIRARQNRAYLERDCPAQLQQLLELGRGVLDQQVPPLVKVTHHVTSSVTTLRCRALNYYPQNITMKWLKDKQPMDAKEFEPKDVLPNGDGTYQGWITLAVPPGEEQRYTCQVEHPGLDQPLIVIWEPSPSGTLVIGVISGIAVFVVILFIGILFIILRKRQGSRGAMGHYVLAERE [HFE]
*A* 57.2

###

System: HeLa Kyoto
Experiment: solubility in G1/S (NP-40 vs SDS abundance) (log2 ratio); higher = more soluble
Details: cell cycle stage: G1/S
measurement.type: solubility in G1/S (log2)
Give the figure only, with no unit attached.

Example results:
MPHSYPALSAEQKKELSDIALRIVAPGKGILAADESVGSMAKRLSQIGVENTEENRRLYRQVLFSADDRVKKCIGGVIFFHETLYQKDDNGVPFVRTIQDKGIVVGIKVDKGVVPLAGTDGETTTQGLDGLSERCAQYKKDGADFAKWRCVLKISERTPSALAILENANVLARYASICQQNGIVPIVEPEILPDGDHDLKRCQYVTEKVLAAVYKALSDHHVYLEGTLLKPNMVTPGHACPIKYTPEEIAMATVTALRRTVPPAVPGVTFLSGGQSEEEASFNLNAINRCPLPRPWALTFSYGRALQASALNAWRGQRDNAGAATEEFIKRAEVNGLAAQGKYEGSGEDGGAAAQSLYIANHAY [ALDOC] ... 0.202
MATSVLCCLRCCRDGGTGHIPLKEMPAVQLDTQHMGTDVVIVKNGRRICGTGGCLASAPLHQNKSYFEFKIQSTGIWGIGVATQKVNLNQIPLGRDMHSLVMRNDGALYHNNEEKNRLPANSLPQEGDVVGITYDHVELNVYLNGKNMHCPASGIRGTVYPVVYVDDSAILDCQFSEFYHTPPPGFEKILFEQQIF [SPRYD7] ... 0.156
MAAGIVASRRLRDLLTRRLTGSNYPGLSISLRLTGSSAQEEASGVALGEAPDHSYESLRVTSAQKHVLHVQLNRPNKRNAMNKVFWREMVECFNKISRDADCRAVVISGAGKMFTAGIDLMDMASDILQPKGDDVARISWYLRDIITRYQETFNVIERCPKPVIAAVHGGCIGGGVDLVTACDIRYCAQDAFFQVKEVDVGLAADVGTLQRLPKVIGNQSLVNELAFTARKMMADEALGSGLVSRVFPDKEVMLDAALALAAEISSKSPVAVQSTKVNLLYSRDHSVAESLNYVASWNMSMLQTQDLVKSVQATTENKELKTVTFSKL [ECH1] ... 0.165

*Q* Record request: solubility in G1/S (log2) value, item MADKQISLPAKLINGGIAGLIGVTCVFPIDLAKTRLQNQQNGQRVYTSMSDCLIKTVRSEGYFGMYRGAAVNLTLVTPEKAIKLAANDFFRHQLSKDGQKLTLLKEMLAGCGAGTCQVIVTTPMEMLKIQLQDAGRIAAQRKILAAQGQLSAQGGAQPSVEAPAAPRPTATQLTRDLLRSRGIAGLYKGLGATLLRDVPFSVVYFPLFANLNQLGRPASEEKSPFYVSFLAGCVAGSAAAVAVNPCDVVKTRLQSLQRGVNEDTYSGILDCARKILRHEGPSAFLKGAYCRALVIAPLFGIAQVVYFLGIAESLLGLLQDPQA [SLC25A22]
*A* 0.299

*Q* # iterate: MAKTYDYLFKLLLIGDSGVGKTCVLFRFSEDAFNSTFISTIGIDFKIRTIELDGKRIKLQIWDTAGQERFRTITTAYYRGAMGIMLVYDITNEKSFDNIRNWIRNIEEHASADVEKMILGNKCDVNDKRQVSKERGEKLALDYGIKFMETSAKANINVENAFFTLARDIKAKMDKKLEGNSPQGSNQGVKITPDQQKRSSFFRCVLL [RAB8A]
*A* -0.0996

###

Tested on: HeLa Kyoto
Assay: solubility in G1/S (NP-40 vs SDS abundance) (log2 ratio); higher = more soluble
Conditions: cell cycle stage: G1/S
measurement.type: solubility in G1/S (log2)
Give the figure only, with no unit attached.

*Q* # returns recorded solubility in G1/S (log2) (system: HeLa Kyoto) for MLGQQQQQLYSSAALLTGERSRLLTCYVQDYLECVESLPHDMQRNVSVLRELDNKYQETLKEIDDVYEKYKKEDDLNQKKRLQQLLQRALINSQELGDEKIQIVTQMLELVENRARQMELHSQCFQDPAESERASDKAKMDSSQPERSSRRPRRQRTSESRDLCHMANGIEDCDDQPPKEKKSKSAKKKKRSKAKQEREASPVEFAIDPNEPTYCLCNQVSYGEMIGCDNEQCPIEWFHFSCVSLTYKPKGKWYCPKCRGDNEKTMDKSTEKTKKDRRSR [ING2]
*A* -0.404

*Q* # iterate: MSSRKQGSQPRGQQSAEEENFKKPTRSNMQRSKMRGASSGKKTAGPQQKNLEPALPGRWGGRSAENPPSGSVRKTRKNKQKTPGNGDGGSTSEAPQPPRKKRARADPTVESEEAFKNRMEVKVKIPEELKPWLVEDWDLVTRQKQLFQLPAKKNVDAILEEYANCKKSQGNVDNKEYAVNEVVAGIKEYFNVMLGTQLLYKFERPQYAEILLAHPDAPMSQVYGAPHLLRLFVRIGAMLAYTPLDEKSLALLLGYLHDFLKYLAKNSASLFTASDYKVASAEYHRKAL [MORF4L2]
*A* 0.0399

*Q* # iterate: MSDEREVAEAATGEDASSPPPKTEAASDPQHPAASEGAAAAAASPPLLRCLVLTGFGGYDKVKLQSRPAAPPAPGPGQLTLRLRACGLNFADLMARQGLYDRLPPLPVTPGMEGAGVVIAVGEGVSDRKAGDRVMVLNRSGMWQEEVTVPSVQTFLIPEAMTFEEAAALLVNYITAYMVLFDFGNLQPGHSVLVHMAAGGVGMAAVQLCRTVENVTVFGTASASKHEALKENGVTHPIDYHTTDYVDEIKKISPKGVDIVMDPLGGSDTAKGYNLLKPMGKVVTYGMANLLTGPKRNLMALARTWWNQFSVTALQLLQANRAVCGFHLGYLDGEVELVSGVVARLLALYNQGHIKPHIDSVWPFEKVADAMKQMQEKKNVGKVLLVPGPEKEN [VAT1]
*A* 0.232

*Q* # iterate: MAPKGSSKQQSEEDLLLQDFSRNLSAKSSALFFGNAFIVSAIPIWLYWRIWHMDLIQSAVLYSVMTLVSTYLVAFAYKNVKFVLKHKVAQKREDAVSKEVTRKLSEADNRKMSRKEKDERILWKKNEVADYEATTFSIFYNNTLFLVVVIVASFFILKNFNPTVNYILSISASSGLIALLSTGSK [SSR3]
*A* -0.131

*Q* # iterate: XPNPEP3
*A* 0.275

*Q* # iterate: MASVGECPAPVPVKDKKLLEVKLGELPSWILMRDFSPSGIFGAFQRGYYRYYNKYINVKKGSISGITMVLACYVLFSYSFSYKHLKHERLRKYH [ATP5J2]
*A* 0.148

*Q* # iterate: MGFGDLKSPAGLQVLNDYLADKSYIEGYVPSQADVAVFEAVSSPPPADLCHALRWYNHIKSYEKEKASLPGVKKALGKYGPADVEDTTGSGATDSKDDDDIDLFGSDDEEESEEAKRLREERLAQYESKKAKKPALVAKSSILLDVKPWDDETDMAKLEECVRSIQADGLVWGSSKLVPVGYGIKKLQIQCVVEDDKVGTDMLEEQITAFEDYVQSMDVAAFNKI [EEF1B2]
*A* 0.522

*Q* # iterate: MAAGTSSYWEDLRKQARQLENELDLKLVSFSKLCTSYSHSSTRDGRRDRYSSDTTPLLNGSSQDRMFETMAIEIEQLLARLTGVNDKMAEYTNSAGVPSLNAALMHTLQRHRDILQDYTHEFHKTKANFMAIRERENLMGSVRKDIESYKSGSGVNNRRTELFLKEHDHLRNSDRLIEETISIAMATKENMTSQRGMLKSIHSKMNTLANRFPAVNSLIQRINLRKRRDSLILGGVIGICTILLLLYAFH [GOSR1]
*A* 0.28

###

Test system: HeLa Kyoto
Assay: solubility change mitosis vs G1/S (difference of NP-40 vs SDS log2 ratios) (log2 ratio difference); higher = more soluble in mitosis
A collection of sequences and their measured solubility change mitosis (log2)
Give the figure only, with no unit attached.

MSDEGSRGSRLPLALPPASQGCSSGGGGGGSSAGGSGNSRPPRNLQGLLQMAITAGSEEPDPPPEPMSEERRQWLQEAMSAAFRGQREEVEQMKSCLRVLSQPMPPTAGEAEQAADQQEREGALELLADLCENMDNAADFCQLSGMHLLVGRYLEAGAAGLRWRAAQLIGTCSQNVAAIQEQVLGLGALRKLLRLLDRDACDTVRVKALFAISCLVREQEAGLLQFLRLDGFSVLMRAMQQQVQKLKVKSAFLLQNLLVGHPEHKGTLCSMGMVQQLVALVRTEHSPFHEHVLGALCSLVTDFPQGVRECREPELGLEELLRHRCQLLQQHEEYQEELEFCEKLLQTCFSSPADDSMDR [HSPBP1] ... 0.0712

Turning to the following sequence.
*Q* Record request: solubility change mitosis (log2) value, item MATTAAPAGGARNGAGPEWGGFEENIQGGGSAVIDMENMDDTSGSSFEDMGELHQRLREEEVDADAADAAAAEEEDGEFLGMKGFKGQLSRQVADQMWQAGKRQASRAFSLYANIDILRPYFDVEPAQVRSRLLESMIPIKMVNFPQKIAGELYGPLMLVFTLVAILLHGMKTSDTIIREGTLMGTAIGTCFGYWLGVSSFIYFLAYLCNAQITMLQMLALLGYGLFGHCIVLFITYNIHLHALFYLFWLLVGGLSTLRMVAVLVSRTVGPTQRLLLCGTLAALHMLFLLYLHFAYHKVVEGILDTLEGPNIPPIQRVPRDIPAMLPAARLPTTVLNATAKAVAVTLQSH [YIPF3]
*A* -0.0133
